These measurements were taken from paper PMC8510478.

Test system: AGE formation in human serum albumin (HSA)/glucose or fructose
Assay: Inhibitory effect on AGE formation (HSA with glucose or fructose, fluorescence)
Format: biochemical
Details: HSA/fructose, 60 °C, 40 h; means ± SE (n = 3); read-out: Inhibitory Effects on AGE Formation IC50, Fructose
Where a name gives a salt, the structure may show the parent alone.
MEASURED PROPERTY: log10 IC50 (log10 of the value in µM)
Answers are given as log10 of IC50 in µM.

Worked cases, log10 IC50 given:
O=c1oc2c(O)c(O)cc3c(=O)oc4c(O)c(O)cc1c4c23 [Ellagic acid, reference compound] : 0.40
O=C(O[C@@H]1O[C@H](CO)[C@@H](O)[C@H](OC(=O)c2cc(O)c(O)c(O)c2)[C@H]1OC(=O)c1cc(O)c(O)c(O)c1)c1cc(O)c(O)c(O)c1 [Compound 2, 1,2,3-tri-O-galloyl-β-D-glucose] : -0.40

Query: Give recorded log10 IC50 with AGE formation in human serum albumin (HSA)/glucose or fructose for the following compound: O=C(O[C@@H]1O[C@@H]2COC(=O)c3cc(Oc4c(C(=O)O[C@H]5C(O)O[C@@H]6COC(=O)c7cc(O)c(O)c(O)c7-c7c(cc(O)c(O)c7O)C(=O)O[C@H]6[C@@H]5OC(=O)c5cc(O)c(O)c(O)c5)cc(O)c(O)c4O)c(O)c(O)c3-c3c(cc(O)c(O)c3O)C(=O)O[C@H]2[C@H](OC(=O)c2cc(O)c(O)c(O)c2)[C@H]1OC(=O)c1cc(O)c(O)c(O)c1)c1cc(O)c(O)c(O)c1 (stereo partly drawn) [Compound 9, camptothin B]
Result: -0.70

Query: # iterate: O=C(OC[C@H]1O[C@@H](OC(=O)c2cc(O)c(O)c(O)c2)[C@H](OC(=O)c2cc(O)c(O)c(O)c2)[C@@H](OC(=O)c2cc(O)c(O)c(O)c2)[C@@H]1O)c1cc(O)c(O)c(O)c1 [Compound 5, 1,2,3,6-tetra-O-galloyl-β-D-glucose]
Result: -0.52

Query: Cool, now O=C(OC[C@H]1O[C@@H](OC(=O)c2cc(O)c(O)c(O)c2)[C@H](OC(=O)c2cc(O)c(O)c(O)c2)[C@@H](O)[C@@H]1O)c1cc(O)c(O)c(O)c1 [Compound 3, 1,2,6-tri-O-galloyl-β-D-glucose]
Result: -0.40

Query: Further, for N=C(N)NN [Aminoguanidine, aminoguanidine hydrochloride, reference compound] ?
Result: 2.90

Query: Then O=C(O)c1cc(O)c(O)c(O)c1 [Gallic acid] ?
Result: 1.43

Query: Thanks! And O=c1oc2c(O)c(Oc3ccc(O)c(O)c3O)cc3c(=O)oc4c(O)c(O)cc1c4c23 [Compound 12, eschweilenol A] ?
Result: 0.46

Query: Query O=c1oc2c(Oc3ccc(O)c(O)c3O)c(O)cc3c(=O)oc4c(O)c(O)cc1c4c23 [Compound 11, rubuphenol] next
Result: 0.67

Query: What about this compound? O=C(OC[C@H]1O[C@@H](OC(=O)c2cc(O)c(O)c(O)c2)[C@H](OC(=O)c2cc(O)c(O)c(O)c2)[C@@H](O)[C@@H]1OC(=O)c1cc(O)c(O)c(O)c1)c1cc(O)c(O)c(O)c1 [Compound 6, 1,2,4,6-tetra-O-galloyl-β-D-glucose]
Result: -0.52
